Documented kon across a set of binders
Biological target: T1, rh-TNFR2-His (recombinant human TNFR2, His tag) (human, UniProt P20333 23-257)
T1 construct: Soluble antigen of the ForteBio assay; not shown: His tag
T1 sequence (looked up): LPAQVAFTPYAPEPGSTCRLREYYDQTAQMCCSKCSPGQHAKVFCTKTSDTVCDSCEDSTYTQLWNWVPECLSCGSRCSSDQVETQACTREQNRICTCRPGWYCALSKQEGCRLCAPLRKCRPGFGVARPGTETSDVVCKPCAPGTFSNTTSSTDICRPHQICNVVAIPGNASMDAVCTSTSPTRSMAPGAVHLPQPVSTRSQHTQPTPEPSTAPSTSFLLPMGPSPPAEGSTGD
Assay: BLI (ForteBio), antibody on sensor, 100 nM rh-TNFR2-His in solution, 1:1 model
Number in M⁻¹ s⁻¹, nothing else.

These solved cases illustrate the format of a correct answer.
chimeric antibody 72G8 (antibody, human IgG1, kappa, V domains shown) VH: EVQLQQSGAELARPGASVMLSCKASGYTFTSYWMQWLKQRPGQGLEWIGAIYPGDGDTRYTQKFKGKATLTADKSSSTAYMQLSSLASEDSAVYYCVRDDGLYYAMDYWGQGTSVTVSS VL: QIVLTQSPTIMSASLGERVTMTCTASSSVSSSYLHWYQQKPGSSPKLWIYSTSNLASGVPARFSGSGSGTSYSLTISSMEAEDAATYYCHQYHRSPPTFGGGTKLEIKR : 1.14e+06
positive control antibody OPI (humanized antibody SBT-002e in WO 2017083525) (antibody, V domains shown, also called Benchmark OPI) VH: QVTLKESGPALVKPTQTLTLTCTFSGFSLSTSGMGVGWIRQPPGKALEWLAHIWWDDDKFYNPSLKSRLTISKDTSKNQVVLTMTNMDPVDTATYYCARLTGTRYFDYWGQGTTVTVSS VL: DVQMTQSPSSLSASVGDRVTITCKASQDINKFIAWYQQKPGKAPKLLIHYTSTLQPGIPSRFSGSGSGRDYTFTISSLQPEDIATYYCLQYGNLWTFGGGTKVEIK : 54800
chimeric antibody 69B1 (antibody, human IgG1, kappa, V domains shown) VH: QIQLVQSGPELKKPGETVKISCKASGYTFTDYSMNWVKQAPGKGLKWMGWLNTETGEPIYADDFKGRFVFSLETSASTAYLEINNLNDEDTATYFCAREAIYYGTSYVLDYWGQGTSVTVSS VL: DIVLTQSPASLAVSLGQRATISCRASESVEYYGTNFMQWYQQKPGQPPKLLIYSASNVESGVPARFSGSGSGTDFSLNIHPVEEDDIAVYFCQQSRKDPSTFGEGTNLEIKR : 1.96e+06

Pending binder:
Ask: Would you kindly share the measured kon for chimeric antibody 3C4 (antibody, human IgG1, kappa, V domains shown) VH: QVQLQQSGPELVKPGASVTISCKASDYSFTNYYIHWVKQRPGQGLEWIGWIYPGNVITKYHEKFKGKAILTADTSSTTAYMQLNSLTSEDSAVYFCARSRATGYFDYWGQGTTLTVSS VL: DIQMTQTTSSLSASLGDRVTISCRASQDIRNYLNWFQQKPDGTIKLLIYYTSRLHSGVPSRFSGSGSGTDYSLTISNLEQEDMATYFCQQFNTLPWTFGGGTKLEIKR ?
Reply: 1.29e+06

meta.source: patent US20240026019A1
